# protocol-text: chemical genetic growth profiling, strain panel (AID 1159580);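 also: tested at 20 µM; growth read once vehicle control cultures reached saturation at 30 °C; 1 = growth at the plate median or of vehicle wells; lower values mean less growth of the strain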
# measurement-context: S. cerevisiae deletion strains, growth OD, locus YOR144C, strain elg1
Hit rate of the full screen: of about 5,500 compounds, about 2,000 (36%) were called active. Another 18% or so got no clear call; they are omitted. Rule as the data show it: active = normalized growth mostly below about 0.91 (no sharp cut-off); inconclusive = no clear call, values can overlap the other calls; inactive = mostly above about 0.92. The list shows a part of the results.
Hi! Could you answer with just one of these? Yes = active, No = inactive

Worked set:
CC(=O)O[C@@H]1CC2C(C)(C)[C@H](O)C[C@H](O)[C@]2(C)C2CC[C@@]3(C)[C@H](c4ccoc4)OC(=O)[C@H]4O[C@]43[C@@]21C (stereo not given in full) :: No
Clc1ccc(Cl)cc1 :: No
CC(=O)Oc1cc(OC(C)=O)c2c(=O)c(-c3ccccc3)coc2c1 :: No
COc1cc([C@@H]2c3cc4c(cc3C(O[C@@H]3O[C@@H]5CO[C@@H](c6cccs6)OC5[C@H](O)[C@H]3O)C3COC(=O)[C@@H]32)OCO4)cc(OC)c1O (stereo not given in full) :: No
COc1ccc2c(=O)cc(-c3ccccc3OC)oc2c1 :: Yes

Task item: In this assay, the call recorded for "CCCN1C[C@H](CSC)C[C@@H]2c3cccc4[nH]cc(c34)C[C@H]21" was what?
Reply: No

Task item: Next entry: CC(=O)[C@H]1CCC2C3CC=C4C[C@@H](O)CC[C@]4(C)C3CC[C@@]21C (stereo not given in full)
Reply: No

Task item: Next entry: "NCCc1cccc(O)c1"
Reply: No

Task item: Next entry: CN1CCN2c3ccccc3Cc3ccccc3C2C1 (stereo not given)
Reply: No

Task item: Next entry: "CC(=O)Nc1cccc(O)c1"
Reply: No

Task item: Next entry: "NCC(=O)CCC(=O)O"
Reply: No

----------
Please provide measured normalized growth for the entries that follow.
# protocol-text: chemical genetic growth profiling, strain panel (AID 1159580);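 also: tested at 20 µM; growth read once vehicle control cultures reached saturation at 30 °C; 1 = growth at the plate median or of vehicle wells; lower values mean less growth of the strain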
# measurement-context: S. cerevisiae deletion strains, growth OD, locus YOR069W, strain VPS5, hits give low values
Screen size: about 5,500 compounds; about 2,000 (36%) were called active. Another 18% or so got no clear call; they are omitted. This is one part of the list.
Answers are plain numbers.

Recorded results for 5 compounds are shown here.
CCCCCCCCCCCCCCCC[n+]1ccccc1 :: 0.0516
COc1ccc(C(=O)/C=C/c2ccccc2)cc1 :: 0.958
COc1ccc(-c2coc3cc(O)cc(O)c3c2=O)cc1 :: 0.501
Cc1cc2cc3c(C)cc(=O)oc3c(C)c2o1 :: 0.974
COc1cccc(-c2cc(=O)c3cc(OC)ccc3o2)c1 :: 1

Quick one: give me normalized growth for each item below, same order please.
1. CC(N)Cc1ccc(O)cc1 (configuration not stated)
2. C=CCCCCCCCCCCCC(O)CC(O)CO (configuration not stated)

Reply:
[1.02, 0.978]

Quick one: give me normalized growth for each item below, same order please.
1. O=C(/C=C/c1ccccc1)c1ccc(O)cc1
2. COc1ccc(-c2cc(=O)c3c(OC)cccc3o2)cc1
3. CC(C)[C@]12O[C@H]1[C@@H]1O[C@@]13[C@@]1(C)CCC4=C(COC4=O)[C@@H]1C[C@@H]1O[C@@]13C2=O
4. O=c1c(-c2ccc(O)cc2)coc2cc(O)cc(O)c12
5. CCCCC1C(=O)N(c2ccccc2)N(c2ccccc2)C1=O
6. CCC/C=C/C=C/[C@@H]1C[C@@H](O)[C@@H](O)C(=O)[C@H]1C=O
7. CCCCCCCCCc1ccc(O)cc1

Reply:
[0.827, 1.04, 1.01, 1.03, 0.984, 0.979, 0.217]

Quick one: give me normalized growth for each item below, same order please.
1. C=CCc1ccccc1OCC(O)CNC(C)C (configuration not stated)
2. COc1cc2cc[n+]3cc4c(OC)c(OC)ccc4cc3c2cc1OC
3. CCOC(=O)C1C(C=C(C)C)C1(C)C (configuration not stated)
4. CC(=O)Oc1c(-c2ccccc2)oc2c(CC=C(C)C)c3c(c(OC(C)=O)c2c1=O)C=CC(C)(C)O3

Reply:
[1.01, 0.993, 1, 0.935]

Quick one: give me normalized growth for each item below, same order please.
1. C[n+]1cc2c3c(ccc2c2ccc4cc5c(cc4c21)OCO5)OCO3
2. COc1ccc(-c2coc3cc(OC)cc(O)c3c2=O)cc1
3. CCC(CCC(C)[C@H]1CCC2C3CC=C4C[C@@H](O)CC[C@]4(C)C3CC[C@@]21C)C(C)C (some centres not stated)

Reply:
1. 0.0593
2. 0.984
3. 0.99

Quick one: give me normalized growth for each item below, same order please.
1. COc1ccc(-c2cc(=O)c3c(OC(C)=O)cc(OC(C)=O)cc3o2)cc1
2. Nc1nc(N)c2nc(-c3ccccc3)c(N)nc2n1

Reply:
[0.959, 1]

Quick one: give me normalized growth for each item below, same order please.
1. CC1(C)O[C@@H]2CC3C4CCC5=CC(=O)C=C[C@]5(C)[C@@]4(F)[C@@H](O)C[C@]3(C)[C@]2(C(=O)CO)O1 (some centres not stated)
2. CC(=O)Oc1cc(-c2coc3cc(OC(C)=O)c(OC(C)=O)c(OC(C)=O)c3c2=O)cc(OC(C)=O)c1OC(C)=O
3. CCC1C2CC3C4N(C)c5ccccc5C45CC(C2C5OC(C)=O)N3C1OC(C)=O (configuration not stated)

Reply:
1: 1.02; 2: 0.904; 3: 1.01

Quick one: give me normalized growth for each item below, same order please.
1. CN(N=O)C(=O)N[C@@H]1[C@@H](O)[C@H](O)[C@@H](CO)O[C@@H]1O
2. CCCCCCc1ccc(O)cc1O
3. CC(C)Oc1ccc2c(=O)cc(-c3ccccc3)oc2c1

Reply:
[1.01, 0.97, 0.925]

Quick one: give me normalized growth for each item below, same order please.
1. CC(=O)[C@H]1CCC2C3CC=C4C[C@@H](O)CC[C@]4(C)C3CC[C@@]21C (some centres not stated)
2. COC(=O)C[C@H]1C(C)(C)C(=O)[C@@H]2CC3=C4CC(OC)O[C@@H](c5ccoc5)[C@]4(C)CCC3[C@@]1(C)C2=O (some centres not stated)
3. CN1CCN2c3ccccc3Cc3ccccc3C2C1 (configuration not stated)

Reply:
[1.01, 1.01, 1.01]

----------
# protocol-text: chemical genetic growth profiling, strain panel (AID 1159580);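 also: tested at 20 µM; growth read once vehicle control cultures reached saturation at 30 °C; 1 = growth at the plate median or of vehicle wells; lower values mean less growth of the strain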
# measurement-context: S. cerevisiae deletion strains, growth OD, locus YPL256C, strain CLN2, hits give low values
About 2,000 (36%) of roughly 5,500 compounds were called active. Another 18% or so got no clear call; they are omitted. Some of the results follow.
property: normalized growth

Recorded results for 3 molecules are shown here.
C/C(=C\C(=O)OCCCCCCCCC(=O)O)C[C@@H]1OC[C@H](C[C@@H]2O[C@H]2[C@@H](C)[C@H](C)O)[C@@H](O)[C@H]1O :: 0.911 (inactive)
O=C1Nc2ccccc2/C1=N/N=C\c1ccccc1Cl :: 0.907 (inactive)
CCCCC1C(=O)N(c2ccccc2)N(c2ccccc2)C1=O :: 0.914 (inactive)

Then there is this molecule:
Task item: // returns reported normalized growth for input "N#Cc1c(Br)cnn1Cc1cc(C(F)(F)F)cc(C(F)(F)F)c1"
Reply: 0.876 (inactive)

----------
Please provide measured normalized growth for the entries that follow.
# protocol-text: chemical genetic growth profiling, strain panel (AID 1159580);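 also: tested at 20 µM; growth read once vehicle control cultures reached saturation at 30 °C; 1 = growth at the plate median or of vehicle wells; lower values mean less growth of the strain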
# measurement-context: S. cerevisiae deletion strains, growth OD, locus YGL078C, strain dbp3, hits give low values
In all, about 5,500 compounds went through this assay and about 2,000 (36%) were called active. Roughly 18% stayed inconclusive and do not appear here. The list shows a part of the results.
Numbers only.

CC1(C)O[C@@H]2CC3C4C[C@H](F)C5=CC(=O)C=CC5(C)C4C(O)CC3(C)[C@]2(C(=O)CO)O1 (stereo partly drawn) :: 0.979

Quick one: give me normalized growth for each item below, same order please.
1. CC(=O)O[C@@H]1CC2C(C)(C)CCC(=O)[C@]2(C)C2CC[C@@]3(C)[C@H](c4ccoc4)OC(=O)C4OC43[C@@]21C (stereo partly drawn)
2. CCN(CC)CCNc1ccc(CO)c2sc3ccccc3c(=O)c12
3. CCC(CCC(C)[C@H]1CCC2C3CC=C4C[C@@H](O)CC[C@]4(C)C3CC[C@@]21C)C(C)C (stereo partly drawn)
4. CC(=O)O[C@@H]1CC2C(C)(C)C(=O)CC[C@]2(C)C2CC[C@@]3(C)[C@H](c4ccoc4)OC(=O)C4OC43[C@@]21C (stereo partly drawn)

Reply:
1: 0.994; 2: 1.01; 3: 0.983; 4: 1.01

Quick one: give me normalized growth for each item below, same order please.
1. CN(C)CC/C=C1/c2ccccc2COc2ccccc21
2. COc1ccc(-c2cc(=O)c3cc(OC)ccc3o2)cc1
3. CC1=NCCc2c1[nH]c1cc(O)ccc21
4. CC1(C)O[C@@H]2CC3C4C[C@H](F)C5=CC(=O)C=C[C@]5(C)[C@@]4(F)[C@@H](O)C[C@]3(C)[C@]2(C(=O)CO)O1 (stereo partly drawn)
5. CN(C)CCC=C1c2ccccc2CCc2ccccc21
6. O=C1c2c(O)ccc(O)c2C(=O)c2c(NCCNCCO)ccc(NCCNCCO)c21
7. CN1CCc2c(c3ccccc3n2Cc2ccccc2)C1
8. C[n+]1cc2c3c(ccc2c2ccc4cc5c(cc4c21)OCO5)OCO3

Reply:
[1.01, 0.995, 0.991, 1.02, 0.986, 0.942, 1.01, 0.907]

Quick one: give me normalized growth for each item below, same order please.
1. CCC(/C=C/[C@@H](C)[C@H]1CCC2C3CC=C4C[C@@H](O)CC[C@]4(C)C3CC[C@@]21C)C(C)C (stereo partly drawn)
2. CN(C)CCC=C1c2ccccc2C=Cc2ccccc21
3. CC(C)(Oc1ccc(Cl)cc1)C(=O)O

Reply:
1: 0.991; 2: 0.985; 3: 0.998

Quick one: give me normalized growth for each item below, same order please.
1. Cc1cc(=O)c2c(O)c3c(cc2o1)OCC(C)CC3 (stereo not drawn)
2. CC(=O)O.CC(=O)O.[Cd]
3. CNCCC=C1c2ccccc2CCc2ccccc21
4. CC1=CCc2c(cc3oc(C)cc(=O)c3c2O)OC1
5. COc1cc([C@@H]2c3cc4c(cc3C(O[C@@H]3O[C@@H]5CO[C@@H](c6cccs6)OC5[C@H](O)[C@H]3O)C3COC(=O)[C@@H]32)OCO4)cc(OC)c1O (stereo partly drawn)
6. CC1=C2C(=CO[C@H](C)[C@H]2C)C(=O)C(C(=O)O)=C1O
7. COc1cc([C@@H]2c3cc4c(cc3[C@H](O)[C@H]3COC(=O)[C@@H]23)OCO4)cc(OC)c1OC

Reply:
1. 0.936
2. 0.466
3. 1.01
4. 0.944
5. 1.02
6. 0.987
7. 0.972
